Assay: Pharmacokinetics / absolute bioavailability in male Sprague Dawley rats
Assay type: in vivo
Conditions: rat, plasma, po, 10 mg/kg, oral gavage, 10 mg/kg, vs historical IV AUCinf; read-out: Absolute % F
Readout name: bioavailability

1. Cn1c2nc(Cc3cc[nH]n3)sc2c2cnn(Cc3cccc(N)n3)c(=O)c21.O=C(O)C(O)C(O)C(=O)O (racemic) [Form C] :: 91%

----------
Assay: Kinetic solubility in biorelevant media
Format: physicochemical
Settings: fessif, pH 5, FeSSIF pH 5.0, 24 h, 37 °C
Readout name: solubility at 24 h (µg/mL)

1. Cn1c2nc(Cc3cc[nH]n3)sc2c2cnn(Cc3cccc(N)n3)c(=O)c21 [Form B] :: 60

----------
Experiment: Kinetic solubility in biorelevant media
Assay type: physicochemical
Conditions: fassif, pH 5, FaSSIF pH 5.0 (so in the source), 30 min, 37 °C
Readout name: solubility at 0.5 h (µg/mL)

1) Cn1c2nc(Cc3cc[nH]n3)sc2c2cnn(Cc3cccc(N)n3)c(=O)c21.O=C(O)C(O)C(O)C(=O)O (racemic) [Form C] :: 310

----------
Experiment: Kinetic solubility in biorelevant media
Format: physicochemical
Conditions: fessif, pH 5, FeSSIF pH 5.0, 2 h, 37 °C
Readout name: solubility at 2 h (µg/mL)

1. Cn1c2nc(Cc3cc[nH]n3)sc2c2cnn(Cc3cccc(N)n3)c(=O)c21 [Form B] :: 110

----------
Assay: Kinetic solubility in biorelevant media
Type: physicochemical
Details: fessif, pH 6.5, FeSSIF pH 6.5 (so in the source), 2 h, 37 °C
Readout name: solubility at 2 h (µg/mL)

1. Cn1c2nc(Cc3cc[nH]n3)sc2c2cnn(Cc3cccc(N)n3)c(=O)c21.O=C(O)C(O)C(O)C(=O)O (racemic) [Form C] :: 990

----------
Assay: pH solubility in buffers
Format: physicochemical
Conditions: 0.1 n hcl, 37 °C, dissolved instantly, estimated by adding 100 uL aliquots; read-out: solubility
Overview of recorded solubility for various compounds
Readout name: solubility

1. Cn1c2nc(Cc3cc[nH]n3)sc2c2cnn(Cc3cccc(N)n3)c(=O)c21 [Form B] :: > 16.7 mg/mL
2. Cn1c2nc(Cc3cc[nH]n3)sc2c2cnn(Cc3cccc(N)n3)c(=O)c21.O=C(O)C(O)C(O)C(=O)O (racemic) [Form C] :: > 10.9 mg/mL

----------
Experiment: Pharmacokinetics / absolute bioavailability in male Sprague Dawley rats
Assay type: in vivo
Details: rat, plasma, po, 10 mg/kg, oral gavage, fasted overnight
Readout name: AUC(0-inf) (ng·h/mL)

1) Cn1c2nc(Cc3cc[nH]n3)sc2c2cnn(Cc3cccc(N)n3)c(=O)c21 [Form E] :: 6960
2) Cn1c2nc(Cc3cc[nH]n3)sc2c2cnn(Cc3cccc(N)n3)c(=O)c21.O=C(O)C(O)C(O)C(=O)O (racemic) [Form C] :: 14200

----------
Assay: pH solubility in buffers
Assay type: physicochemical
Conditions: ph 6.8 buffer (usp), pH 6.8, pH 6.8 (USP), 24 h, 37 °C
Readout name: solubility at 24 h (µg/mL)

1) Cn1c2nc(Cc3cc[nH]n3)sc2c2cnn(Cc3cccc(N)n3)c(=O)c21.O=C(O)C(O)C(O)C(=O)O (racemic) [Form C] :: 330

----------
Test: Kinetic solubility in biorelevant media
Type: physicochemical
Details: sgf, pH 1.2, SGF pH 1.2, 10 min, 37 °C
Readout name: solubility at 10 min

1. Cn1c2nc(Cc3cc[nH]n3)sc2c2cnn(Cc3cccc(N)n3)c(=O)c21 [Form A] :: 2850 µg/mL
